Below, each of the compounds is paired with its reported TGI value.
- Tested on: A549 NSCLC
- Assay Explanation: NCI tumour cell line growth inhibition, 48 h

Known results for compounds:
CC(CCC(=O)O)c1ccc(Br)cc1 (stereo not given) : > 100 µM
C=C(C)[C@@H]1CC[C@]2(CN)CC[C@]3(C)[C@H](CC[C@@H]4[C@@]5(C)CCC(N)[C@@](C)(CO)[C@@H]5CC[C@]43C)[C@@H]12 (stereo not given in full) : 3.27 µM
C#CCN(Cc1nc2cc(C(F)(F)F)ccc2nc1-c1ccccc1)c1ccc(F)cc1 : 60.9 µM

Which TGI is reported for this compound? COc1ccc(OCC(C)(C)O)cc1 > 100 µM

Which TGI is reported for this compound? CO/N=C(\C(=O)[N-][n+]1cnn(CC(=O)O)c1)c1csc(N)n1 > 10 µM

Which TGI is reported for this compound? CC1(C)OC2COC(c3[nH]nc4c(=O)[nH]c(=O)[nH]c34)C2O1 (stereo not given) > 100 µM

Which TGI is reported for this compound? C=C(C)C1CC2=C(O1)C(=O)c1cccc(O)c1C2=O (stereo not given) 4.9 µM
